Tested on: HIV-1 double mutant 103N + 181C
Test: MT-4 cell-based antiviral assay, SDM mutant
Conditions: Human immunodeficiency virus 1, MT4, read-out: IC50 value
property-label: IC50 (nM)

molecule-smiles	recorded-value
Cc1cc(/C=C/C#N)cc(C)c1Nc1ccnc(Nc2ccc(C#N)cc2)n1	1
Cc1cc(/C=C\C#N)cc(C)c1Nc1ccnc(Nc2ccc(C#N)cc2)n1	40

====

Assay: Phase I single oral dose trials: safety, tolerability, pharmacokinetics
Assay type: in vivo, human
Settings: male, human, plasma; single oral dose 25 mg

molecule-smiles	Tmax, h
Cc1cc(/C=C/C#N)cc(C)c1Nc1ccnc(Nc2ccc(C#N)cc2)n1	4
